pIC50: −log10 of the molar value.
The entries that follow carry pIC50 values tested on PIP4K2B (Homo sapiens, UniProt P78356), drawn from several published reports.
Sequence (P78356 whole entry, species assumed): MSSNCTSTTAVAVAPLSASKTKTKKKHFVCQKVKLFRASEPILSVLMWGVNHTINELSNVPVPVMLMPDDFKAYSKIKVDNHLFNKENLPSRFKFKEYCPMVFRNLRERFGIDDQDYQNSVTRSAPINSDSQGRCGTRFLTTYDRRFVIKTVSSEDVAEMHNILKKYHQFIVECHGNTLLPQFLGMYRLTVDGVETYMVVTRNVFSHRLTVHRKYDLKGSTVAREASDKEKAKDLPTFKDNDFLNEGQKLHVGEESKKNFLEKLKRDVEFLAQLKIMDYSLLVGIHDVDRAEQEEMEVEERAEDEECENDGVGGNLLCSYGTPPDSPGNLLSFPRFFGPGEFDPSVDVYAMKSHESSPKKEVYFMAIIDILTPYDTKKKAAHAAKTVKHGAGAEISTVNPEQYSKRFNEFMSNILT

Examples with their reported pIC50 follow.
**Query** Would you mind telling me what pIC50 value was observed for "CC1(C)Oc2cc(N3CCCC3=O)c(F)cc2-c2cnc(Nc3cnc4c(c3)OCCO4)cc21" ?
**Result** 7.00 to 8.00

**Query** Next: "O=C(NCCc1ccc[nH]1)c1cc2c(-c3cncc(-c4ccc(N5CCCC5=O)cc4)c3)ccnc2[nH]1"
**Result** 7.00 to 8.00

**Query** Try this molecule next: "CN1CCn2c(cc3c(-c4cncc(-c5ccc(C(=O)N6CC(C)(C)C6)cc5)c4)ccnc32)C1=O"
**Result** 6.00 to 7.00

**Query** // same read-out, input: O=C(c1cc2c(-c3cncc(-c4ccc(N5CCCC5=O)cc4)c3)ccnc2[nH]1)N1CCCC2(CCCO2)C1 (centres unmarked)
**Result** 6.00 to 7.00

Others:
**Query** For "Cn1cnnc1N1CCN(c2ccc(Nc3cnc4c(c3)N3C(=O)CC[C@H]3CO4)nc2)CC1" , what is its reported pIC50?
**Result** 7.00 to 8.00

**Query** What about "O=C1CCCN1c1ccc(-c2cncc(-c3cn(CC4CCOCC4)c(=O)c4[nH]ncc34)c2)cc1" ?
**Result** 6.00 to 7.00

**Query** "CC1(C)Oc2cc(N3CCCC3=O)ccc2-c2cnc(Nc3cncc(N4CCNC4=O)c3)cc21" , same question.
**Result** 7.00 to 8.00

**Query** Also CC1Oc2cc(C(=O)N(C)C)ccc2-c2cnc(Nc3cnc4c(c3)N(S(C)(=O)=O)CCO4)cc21 (centres unmarked) ?
**Result** 8.00 to 9.00

**Query** What do you get for "COc1nc(Nc2cnc3c(c2)N(C(=O)OCCN(C)C)CCO3)ncc1-c1ccc(N2CCCC2=O)cc1" ?
**Result** 8.00 to 9.00

**Query** What do we get for "CC(C)c1c(-c2cncc(-c3ccc(N4CCCC4=O)cc3)c2)c2cc(C(=O)N(C)C)cnc2n1C" ?
**Result** 5.60 to 6.00

**Query** Next up: CC1Oc2cc(N3CCCC3=O)ccc2-c2cnc(Nc3cncc(NC(=O)c4cc5ccccn5n4)c3)cc21 (centres unmarked)
**Result** 7.00 to 8.00

**Query** # repeat for "COc1ncc(Nc2cc3c(cn2)-c2ccc(N4CCCC4=O)cc2OC3(C)C)cc1NC(C)=O"
**Result** 6.00 to 7.00

**Query** Try "CCN(CC)CCN(C)C(=O)N1CCOc2ncc(Nc3ncc(-c4ccc(N5C(=O)CC[C@H]5C)cc4)cn3)cc21" next.
**Result** 6.00 to 7.00

**Query** Please give the result for "CC1(C)Oc2cc(N3CCCC3=O)ccc2-c2cnc(Nc3cncc(OCCN4CC(F)C4)c3)nc21" too.
**Result** 6.00 to 7.00

**Query** Another molecule to look at: "O=C1CCCN1c1ccc(-c2cncc(-c3ncnc4nc(C5CCC5)[nH]c34)c2)cc1"
**Result** 5.60 to 6.00

**Query** Record: CC(=O)OC(C)C(=O)N1CCOc2ncc(Nc3ncc4c(n3)C(C)(C)Oc3cc(-n5nncc5C)ccc3-4)cc21 (centres unmarked)
**Result** 8.00 to 9.00

**Query** // repeat for "O=C1CCCN1c1ccc(-c2ccc(Nc3cncc(N4CCN(Cc5cscn5)C4=O)c3)nc2)cc1" and report
**Result** 7.00 to 8.00

**Query** Similarly, "CN(C)C(=O)c1ccc(-c2cc(-c3ccnc4[nH]c(C(=O)NCC(F)(F)F)cc34)cnc2N)nc1" ?
**Result** 7.00 to 8.00

**Query** Also "CN(C)C(=O)c1ccc(-c2ccc(Nc3cncc(NC(=O)c4ccc5c(c4)B(O)OC5)c3)nc2)cc1" , if possible.
**Result** 7.00 to 8.00

**Query** Next molecule: "CC(=O)OC1(C(=O)N2CCOc3ncc(Nc4ncc5c(n4)C(C)(C)Oc4cc(-n6nncc6C)ccc4-5)cc32)CC1"
**Result** 8.00 to 9.00

**Query** Now consider "CN(C)C(=O)c1ccc(-c2ccc(Nc3cnc4c(c3)NC(=O)CO4)nc2)cc1" .
**Result** < 6.00

**Query** // same read-out, input: "O=C(Nc1ccccn1)c1cc2c(-c3cncc(-c4ccc(N5CCCC5=O)cc4)c3)ccnc2[nH]1"
**Result** 7.00 to 8.00

**Query** Param item: CC1Oc2cc(N3CCCC3=O)ccc2-c2cnc(Nc3cncc(N(C)S(C)(=O)=O)c3)cc21 (centres unmarked)
**Result** 6.00 to 7.00

**Query** Next molecule up: "CN(C)C/C=C/C(=O)Nc1ccc(C(=O)Nc2cncc(Nc3cc4c(cn3)-c3ccc(N5CCCC5=O)cc3OC4)c2)cc1"
**Result** 8.00 to 9.00
